# Lookup of reported pIC50 keyed by entry
- System: L02
- test method notes: Antiproliferative activity against human L02 cells after 48 hrs by MTT assay
- Type: functional, cell-based
- condition label: L02, 48 h
Please report pIC50 as the negative decimal logarithm of the molar concentration, giving only the number.

Name the recorded pIC50 for `O=C1c2ccccc2-c2nccc3c(OCCCCN4CCOCC4)ccc1c23` .
4.64

Name the recorded pIC50 for `O=C1c2ccccc2-c2nccc3c(OCCCCCn4cnc([N+](=O)[O-])c4)ccc1c23` .
4.62

Name the recorded pIC50 for `Cc1cn(CCCOc2ccc3c4c(nccc24)-c2ccccc2C3=O)cn1` .
4.62

Name the recorded pIC50 for `O=C1c2ccccc2-c2nccc3c(OCCCn4ccnc4[N+](=O)[O-])ccc1c23` .
4.40

Name the recorded pIC50 for CC1CCCCN1CCOc1ccc2c3c(nccc13)-c1ccccc1C2=O (stereo not drawn) .
4.44

Name the recorded pIC50 for CC1CCCCN1CCCOc1ccc2c3c(nccc13)-c1ccccc1C2=O (stereo not drawn) .
4.71

Name the recorded pIC50 for `COc1cccc2c1C(=O)c1c(O)c3c(c(O)c1C2=O)C[C@@](O)(C(=O)CO)C[C@@H]3O[C@H]1C[C@H](N)[C@H](O)[C@H](C)O1` .
6.74

----------
# Lookup of reported IC50 keyed by entry
- Test system: L02
- test method notes: Antiproliferative activity against human L02 cells after 48 hrs by MTT assay
- Format: functional, cell-based
- condition label: L02, 48 h
Respond numerically; units are µM and should not be typed.

Answered cases to consult:
[[record]]
compound = "N#Cc1ncn(CCCCCOc2ccc3c4c(nccc24)-c2ccccc2C3=O)c1C#N"
measured = 31.1

[[record]]
compound = "CN1CCN(CCCOc2ccc3c4c(nccc24)-c2ccccc2C3=O)CC1"
measured = 25.9

[[record]]
compound = "O=C1c2ccccc2-c2nccc3c(OCCCn4cnc([N+](=O)[O-])c4)ccc1c23"
measured = 21.1

[[record]]
compound = "N#Cc1ncn(CCCCOc2ccc3c4c(nccc24)-c2ccccc2C3=O)c1C#N"
measured = 26.8

[[record]]
compound = "O=C1c2ccccc2-c2nccc3c(OCCCCn4ccnc4[N+](=O)[O-])ccc1c23"
measured = 37.3


Turning to the following compound.
Name the recorded IC50 for `CN1CCN(CCOc2ccc3c4c(nccc24)-c2ccccc2C3=O)CC1` .
22.4

----------
- System: L02
- test method notes: Antiproliferative activity against human L02 cells after 48 hrs by MTT assay
- Assay type: functional, cell-based
- condition label: L02, 48 h
# Lookup of reported IC50 keyed by entry
Respond numerically; units are µM and should not be typed.

Answered cases to consult:
[[record]]
compound = "Cc1cn(CCCCOc2ccc3c4c(nccc24)-c2ccccc2C3=O)cn1"
tested_on = "L02"
unit_abbreviation = "µM"
measured = 28.2

[[record]]
compound = "O=C1c2ccccc2-c2nccc3c(OCCCn4cnc(Br)c4)ccc1c23"
tested_on = "L02"
unit_abbreviation = "µM"
measured = 36.8

[[record]]
compound = "O=C1c2ccccc2-c2nccc3c(OCCCCCn4ccnc4[N+](=O)[O-])ccc1c23"
tested_on = "L02"
unit_abbreviation = "µM"
measured = 30.2

[[record]]
compound = "O=C1c2ccccc2-c2nccc3c(OCCCCn4cnc(Br)c4)ccc1c23"
tested_on = "L02"
unit_abbreviation = "µM"
measured = 32.3

[[record]]
compound = "CC1CCCCN1CCCCOc1ccc2c3c(nccc13)-c1ccccc1C2=O (stereo not given)"
tested_on = "L02"
unit_abbreviation = "µM"
measured = 28.4


Query the reported IC50 for L02; item: `O=C1c2ccccc2-c2nccc3c(OCCCN4CCOCC4)ccc1c23`
32.4
